System: K-562 leukemia
test summary: NCI-60 one-dose screen, 48 h
cond: 10 µM unless noted
About 83,000 compounds went through this panel and 20% of them were active in at least one assay; those are over-represented in the sample as a whole. The source made the active and inactive calls. Rule for the calls: active = growth percent below 10; inactive = the rest.
Permitted responses: true (1) (active), false (0) (inactive)

In: # fetch the recorded call for "C=C1C(=O)O[C@H]2[C@H]1CC/C(COC(=O)/C=C\C(=O)NCc1ccc(Cn3c(=O)sn(CCCl)c3=O)cc1)=C\CC[C@@]1(C)O[C@@H]21" here
Out: false (0)

In: Answer briefly: the call reported for O=P(O)(O)OCC1OC(n2cnc3c(NCc4ccco4)ncnc32)C(O)C1O (stereo unspecified) in this assay.
Out: false (0)

In: I'd appreciate the recorded outcome for "Cc1nc2ccccc2c(/C=C/c2ccccc2)c1C(=O)/C=C/c1ccccc1" from this test.
Out: true (1)

In: Look up the recorded call for "CC(C)(C)n1cc(-c2ccnc(NCCNS(=O)(=O)c3ccc(O)cc3)c2)c(-c2cccc(O)c2)n1" in this test.
Out: false (0)

In: State the result this test recorded for "CCN(CC)c1ccc(/C=N/NC(=O)Cc2ccc(Nc3ccnc(C(F)(F)F)c3)cc2)c(O)c1" .
Out: false (0)

In: Field: outcome | Entry: "O=c1c2ccccc2c(=O)c2c1sc1c(=O)c3ccc(O)cc3c(=O)c12"
Out: true (1)

In: Name the outcome recorded for "NC(=O)c1c(NC(=O)c2cccc(C(F)(F)F)c2)sc2c1CCC(=O)C2" in the assay.
Out: true (1)

In: Dear all, I need the recorded test outcome for "Cc1ccc(-c2nc3nc(-c4ccccc4)nc(N4CCCN(S(C)(=O)=O)CC4)c3o2)cc1" , thank you.
Out: false (0)

In: So what was the verdict on "COc1cc(/C=N/Nc2ccc(Br)cc2)cc(OC)c1OC" in this test?
Out: true (1)

In: Just curious, what result did "Cn1cc(-c2csc(-c3c[nH]c4ccc(F)cc34)n2)c2ccnc(Cl)c21" get here?
Out: false (0)

In: Tell me the assay call for "N=C(N)c1ccc(-c2ccc(-c3cc(Cl)cc(Cl)c3)s2)nc1" please.
Out: true (1)

In: Hey, what did the test say about "C=CN(C(=O)N1CCN(c2cc3c(cc2F)c(=O)c(C(=O)O)cn3C2CC2)CC1)c1nc(-c2ccc(OC)cc2)cs1" ?
Out: false (0)

In: Status in this test for O=C(NC(Cc1nnc2n(Cc3ccccc3)c(=O)c3c4c(sc3n12)CCCC4)c1ccccc1)c1ccccc1 (stereo unspecified) ?
Out: false (0)

In: Recorded test outcome, item "COc1cc2nc3sc(C(=O)Nc4ccc(C(=O)OC(C)C)cc4)c(C(=O)Nc4ccc(Cl)cc4C)n3c(=O)c2cc1OC"
Out: false (0)

In: Tell me the assay call for "O=C(NNC(=O)c1ccc(NC(=O)c2ccccn2)cc1)Nc1ccc2ccccc2c1" please.
Out: false (0)

In: Fill in: this test's call for "CC1CCN(C(=S)SCC(=O)NC(=O)c2ccccc2)CC1" is ___
Out: false (0)

In: Please indicate how the test categorized "N#C/C(=C\c1cn(Cc2ccccc2)c2ccccc12)C(=O)Nc1ncc(Cc2ccccc2Cl)s1" .
Out: false (0)

In: What did the test return for "N#Cc1c(Nc2ccc(N3CCOCC3)cc2)nc(SCC(=O)c2ccc(Br)cc2)nc1-c1ccccc1" ?
Out: false (0)

In: Each compound tested received a call. Report the one for "COc1ccc(/C=C2\COc3ccc(O)cc3C2=O)cc1" .
Out: false (0)

In: Kindly provide the recorded test outcome for the following compound: "Fc1ccc2[nH]cc(-c3nc(-c4c[nH]c5ccncc45)cs3)c2c1"
Out: true (1)

In: // outcome(item) with item = "S=c1[nH]c(=S)c2c(-c3ccccc3)c(-c3ccccc3)oc2[nH]1"
Out: false (0)

In: For "CC[C@]12C=CCN3CC[C@@]4(c5ccc(OC)cc5N(C)[C@H]4[C@@](O)(C(=O)OC)[C@@H]1OC(=O)CCC[P+](c1ccccc1)(c1ccccc1)c1ccccc1)[C@@H]32" , what call appears in the results of this test?
Out: false (0)

In: Assay result, entry "NC1=Nc2cc(OCCCCN3Cc4ccccc4C3)c(OCC3CC3)cc2C12CCCC2" — outcome?
Out: true (1)

In: Could you kindly confirm the outcome this assay logged for "COc1cc(-c2nc3cc(Cl)c(Cl)cc3[nH]2)ccc1OCC(=O)N=Nc1c(O)[nH]c2ccc(Cl)cc12" ?
Out: true (1)

In: Please indicate how the test categorized "COc1ccc(C(=O)c2cc3c(N)c(C(=O)Nc4ccccc4)sc3nc2C)cc1" .
Out: true (1)

In: Could you kindly confirm the outcome this assay logged for "O=C(Cc1ccc(NC(=O)c2cccc(Cl)c2)cc1)NCc1ccccc1" ?
Out: false (0)

In: Dear all, I need the recorded test outcome for "COc1cc(C2C(C(=O)OCc3ccccc3)=C(C)NC(C)=C2C(=O)OCc2ccccc2)cc(OC)c1OC" , thank you.
Out: false (0)

In: Could you please tell me the result logged for "O=C(CCCCCCN1CC(=O)N2[C@H](c3ccc(Cl)cc3)c3[nH]c4ccccc4c3C[C@@H]2C1=O)NO" in this assay?
Out: false (0)

In: Per the records of this test, what outcome belongs to "Oc1c(CN2CCCC2)cc(CSCc2ccccc2)c2cccnc12" ?
Out: false (0)

In: // outcome(item) with item = "N#Cc1nc(-c2ccccc2)oc1S(=O)(=O)N1CCN(c2ccc(F)cc2)CC1"
Out: true (1)

In: What is the recorded call for this compound in the test? "N#Cc1cncc(-c2ccc3ncnc(Nc4cccc(Cl)c4)c3c2)c1"
Out: false (0)

Measured values drawn from PubChem BioAssay (NCI) for this set.
